System: UACC-62 melanoma
experiment.description: NCI-60 one-dose screen, 48 h (100 = growth as untreated, 0 = no growth, -100 = all killed)
test.settings: 10 µM unless noted
Compounds without any hit were thinned out: in the full panel of roughly 83,000, 20% have a hit. Active and inactive are the calls of the source. Rule for the calls: active = growth percent below 10; inactive = the rest.
attribute.measured: growth

CCOC(=O)c1c(N)c(C#N)cn1Cc1ccc(Cl)cc1Cl = 59.8% (inactive)
O=C(Nc1cccc(C(F)(F)F)c1)N1CCN(c2cc(-c3cn(-c4ccccc4)nc3-c3cccc(O)c3)ccn2)CC1 = 40% (inactive)
CN1CCN(c2ccc(Nc3nc(NCCCNS(=O)(=O)c4cccc(F)c4)c4sccc4n3)cc2)CC1 = 0.267% (active)
NC1[C@H]2CN(c3cnc(C(=O)Nc4cc(F)cc5cccnc45)cn3)C[C@@H]12 (stereo not given in full) = 92.1% (inactive)
COc1ccc(/C(=N\NC(N)=S)c2ccc(Cl)cc2)cc1OC = 18.9% (inactive)
COc1ccc(-c2cnc(NC(=O)CCCCCCNC(=O)C(O)(O)C(F)(F)F)s2)cc1 = -31.8% (active)
O=S1SC(c2ccccc2)=NN1c1cc(F)cc(F)c1 (stereo not given) = 29.1% (inactive)
CC1=C(C)C(=O)C(Nc2cccc(C)c2)=C(Br)C1=O = 94.4% (inactive)

Please state, for each entry, its recorded growth.
1. CC(=O)c1c([Si](C)(C)C)c2cc(C#N)ccn2c1C(=O)c1ccc(Br)cc1
2. Cc1ccc(CSC2=C(Cl)CN(c3ccc(Cl)cc3)C2=O)cc1
3. CC/C(=C(/c1ccc(Cl)cc1)c1ccc(OCCN)cc1)c1ccccc1
4. O=C(NNc1nc2cc(F)cc(F)c2n2cccc12)c1cccnn1
5. N#C/C(=C\c1ccc(-c2ccc(Cl)cc2)o1)C(=O)Nc1ncc(Cc2ccc(Br)cc2)s1
6. O=C(CSc1nc2ccccc2c(=O)n1-c1ccc(S(=O)(=O)Nc2ccc(Cl)nn2)cc1)Nc1ccc(S(=O)(=O)Nc2ccc(Cl)nn2)cc1

Solution:
74.9% (inactive)
94.7% (inactive)
107% (inactive)
9.53% (active)
1% (active)
94% (inactive)

Please give growth for each item listed below.
1. O=C(Nc1ccc(N2CCOCC2)cc1)Nc1ccc2c(ccn2C(=O)c2cccc(F)c2)c1
2. NS(=O)(=O)c1cccc(Nc2nc(SCC(=O)c3ccc(Cl)cc3)nc3c2CCC3)c1
3. CN(C)c1cccc2c(S(=O)(=O)Nc3cccc(-c4csc(NC(=O)CCCCCN5CCN(CCO)CC5)n4)c3)cccc12
4. Cc1[nH]c(C(=O)Nc2ccccc2OCc2cccc(C(=O)NC3CCNC3)c2)c(Cl)c1Cl (stereo not given)
5. C1=CC(c2nn3c(-c4ccccc4)nnc3s2)=Cc2ccccc2O1

Solution:
1: 42.3% (inactive); 2: 97.1% (inactive); 3: 94.1% (inactive); 4: 75% (inactive); 5: 74% (inactive)

Exercise: Recorded growth for "C#CCN(C)CCCOc1ccc(NC(=O)CCCCCCC(=O)NO)cc1Cl" , please?
Solution: -28.9% (active)
